- Tested on: fibro-sarcomas induced by methyl cholanthrene, tumour cells in culture
- procedure-text: Tumour culture: inhibition of multiplication of methyl cholanthrene-induced fibro-sarcoma cells in vitro
- Format: cell-based
- experimental-context: Rattus norvegicus, 72 h; 10^-4 molar; 72nd hour after sub-culture; read-out: percentage of diminution of the number of cells in comparison with the control
readout-kind: inhibition at 100 µM (%)
State the answer as a number, implicitly in %.

Consider the worked cases shown below.
COc1cccc(OCC=NNC(=N)N)c1 :: 18.4
Cc1cccc(OCC=NNC(=N)N)c1 :: 32.1
COc1ccc(OCC=NNC(=N)N)cc1 :: 15.8
Cc1ccc(OCC=NNC(=N)N)cc1 :: 25
Cc1ccccc1OCC=NNC(=N)N :: 10.7

Here is another molecule to look at.
Reported inhibition at 100 µM for `N=C(N)NN=CCOc1ccc(Cl)cc1` was 36.8

###

- Tested on: platelet aggregation
- procedure-text: Platelet anti-aggregant action (BORN's method)
- Type: cell-based, human or rabbit
- experimental-context: Platelet, read-out: PI50 (platelet aggregation)
readout-kind: IC50 (mM)
Respond with the bare value in mM.

According to the records, this compound CC(=O)Oc1ccccc1C(=O)O [Lysine acetylsalicylate, reference compound] displays IC50 of 51.3

###

- Tested on: fibro-sarcomas induced by methyl cholanthrene, tumour cells in culture
- procedure-text: Tumour culture: inhibition of multiplication of methyl cholanthrene-induced fibro-sarcoma cells in vitro
- Format: cell-based
- experimental-context: Rattus norvegicus, 72 h; 10^-4 molar; 72nd hour after sub-culture; read-out: percentage of diminution of the number of cells in comparison with the control
Rule: TRUE for inhibition at 100 µM not less than 20%, FALSE for anything less.

The following compounds have reported results that may help.
N=C(N)NN=CCOc1ccc(Br)cc1 [Compound 12] :: TRUE
N=C(N)NN=CCOc1ccccc1 [Compound 1] :: FALSE
N=C(N)NN=CCOc1cccc(Cl)c1 [Compound 3] :: TRUE
N=C(N)NN=CCOc1ccccc1Cl [Compound 2] :: FALSE
COc1ccccc1OCC=NNC(=N)N [Compound 5] :: FALSE

Please examine the following record next.
Query: Confirm if inhibition at 100 µM reported for the compound CC(C)c1ccccc1OCC=NNC(=N)N [Compound 11] is 20% or above.
Response: TRUE
